# Subject Of Test: FGFR1 (UniProt P11362)
# Sequence (P11362 whole entry, looked up): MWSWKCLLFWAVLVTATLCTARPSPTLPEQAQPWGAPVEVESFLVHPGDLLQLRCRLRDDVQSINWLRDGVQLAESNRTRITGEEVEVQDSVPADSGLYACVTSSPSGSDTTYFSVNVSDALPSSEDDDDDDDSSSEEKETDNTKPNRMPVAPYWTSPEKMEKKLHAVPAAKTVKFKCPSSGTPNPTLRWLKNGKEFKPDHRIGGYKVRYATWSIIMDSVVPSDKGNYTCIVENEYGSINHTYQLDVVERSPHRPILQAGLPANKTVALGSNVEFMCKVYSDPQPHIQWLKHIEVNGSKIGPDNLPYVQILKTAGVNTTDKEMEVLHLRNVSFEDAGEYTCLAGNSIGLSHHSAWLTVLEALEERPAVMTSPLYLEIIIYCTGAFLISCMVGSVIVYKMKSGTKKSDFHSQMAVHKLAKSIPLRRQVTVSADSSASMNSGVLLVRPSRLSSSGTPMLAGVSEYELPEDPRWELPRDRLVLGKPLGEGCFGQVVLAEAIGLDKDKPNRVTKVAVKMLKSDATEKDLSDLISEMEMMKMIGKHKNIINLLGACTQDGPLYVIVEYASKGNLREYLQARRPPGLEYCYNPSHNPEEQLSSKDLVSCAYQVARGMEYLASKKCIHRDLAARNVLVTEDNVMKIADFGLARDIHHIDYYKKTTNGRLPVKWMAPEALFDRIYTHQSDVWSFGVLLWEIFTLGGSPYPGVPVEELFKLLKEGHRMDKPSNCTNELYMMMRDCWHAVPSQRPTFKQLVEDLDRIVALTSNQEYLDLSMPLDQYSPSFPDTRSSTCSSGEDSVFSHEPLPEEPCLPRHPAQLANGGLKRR
# Test Name: phosphorylation enrichment, bacterial display (enrichment ratio); higher = better substrate or ligand; peptides without Tyr show the background;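 further: 11-residue human phosphosite peptides and single-mutation variants displayed on the E. coli surface, counted by deep sequencing, each peptide's frequency after selection divided by its frequency in the unselected input library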;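 further: frequency after pTyr selection over input frequency; kinase dosed for 20-30% of maximal phosphorylation in three min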

{"Polymer Sequence": "GGCQEYTGAPF [NAXD_Y85_YF]", "phosphorylation enrichment": 0.526}
{"Polymer Sequence": "GNHISYFQSDG [CACNA1C_Y1757_V1755I_YF]", "phosphorylation enrichment": 0.483}
{"Polymer Sequence": "ALWFIYLHTRS [ENG_Y614_S615L_YF]", "phosphorylation enrichment": 0.409}
{"Polymer Sequence": "TAPYNYSYIFK [RAB14_Y8]", "phosphorylation enrichment": 1.74}
{"Polymer Sequence": "LWQSIYNLDAE [TNNT2_Y251_E254D]", "phosphorylation enrichment": 0.658}
